- method description: Plasma protein binding in human plasma assessed as unbound fraction
- Assay type: ADME, cell-free
- experimental context: read-out: Fu
value type: fraction unbound

Asked: Need fraction unbound of COc1cc(N2CCN(C)CC2)c(-c2cnn(C)c2)cc1Nc1ncc(Cl)c(Nc2ccccc2P(C)(C)=O)n1 , thanks.
Given back: 0.243

Asked: Note, next up: COc1cc(N2CCC(N(C)C)CC2)c(-c2cn[nH]c2)cc1Nc1ncc(Cl)c(Nc2ccccc2P(C)(C)=O)n1
Given back: 0.19

a: COc1cc(N2CCC(N3CCN(C)CC3)CC2)c(-c2cn[nH]c2)cc1Nc1ncc(Cl)c(Nc2ccccc2P(C)(C)=O)n1
b: COc1cc(N2CCC(N(C)C)CC2)c(-c2cnn(C)c2)cc1Nc1ncc(Cl)c(Nc2ccccc2P(C)(C)=O)n1
Asked: Choose between a and b : whose measured fraction unbound value is numerically larger? Label of pick, please.
Given back: b
(b: 0.272, a: 0.1)

Data provenance is ChEMBL document CHEMBL5030539.
